Every entry's value here was drawn from PubChem BioAssay (NCI).

The following molecules are listed with their measured growth values.
System: NCI-H226 lung
Assay: NCI-60 one-dose screen, 48 h (100 = growth as untreated, 0 = no growth, -100 = all killed)
Settings: 10 µM unless noted
This is part of a sample that, as a whole, favours compounds with a hit. Of some 83,000 tested, about 20% had one in any assay.
reported-property: growth (%)

C/C(=N\N=C\c1cc([N+](=O)[O-])ccc1Cl)c1ccc2c(c1)Nc1ccccc1S2; 53
S=C(NCCc1ccccc1)Nc1ccc(OCc2nc3ccccc3[nH]2)cc1; 108
Cc1cc(N=C2NC(=O)CS2)n[nH]1; 132
OCNc1ccc(-n2cnc3cc(-c4ccc(O)cc4)ccc32)cc1C(F)(F)F; 51
CC1CN(c2oc(-c3ccc([N+](=O)[O-])cc3)nc2C#N)CC(C)O1 (centres undefined); 102
C=C1CCC2C3(C)COC(c4cccs4)OC3CCC2(C)C1CC(Sc1ccccc1)C1=CCOC1=O (centres undefined); 87.7
O=C(NNc1ccccc1)n1c(=O)c2ccccc2c(=O)n1-c1ccccc1; 95.7
C=C1CC[C@@H]2[C@]3(C)COC(c4cn[nH]c4-c4ccc(Br)cc4)O[C@@H]3CC[C@@]2(C)[C@@H]1C/C=C1/C(=O)OCC1O (some centres undefined); -83.3
CCOc1ccc(-c2c(C#N)c(-c3ccc(Cl)cc3)nc3n[nH]c(-c4ccc(Cl)cc4)c23)cc1OC; 59.1
Nc1cc2ccccc2c(=O)n1NC(=O)c1ccc(I)cc1; 99.9
COc1ccc(/C=C/c2nc3ccccc3c(=O)n2CC(=O)Nc2ccc(Cl)cc2)cc1; 30.4
N#Cc1c(-c2ccc(Br)cc2)nc2n[nH]c(-c3ccc(Br)cc3)c2c1-c1ccc(F)cc1; 87.5
COc1ccc(NC(=O)Nc2ccc(OCc3ccc(F)cc3)cc2)cc1; 12.4
CN1CCN(c2ccc3c(c2)nc(NNC(=O)c2ncccn2)c2cccn23)CC1; -22.8
COc1ccc(C(=O)Nc2n[nH]c(Nc3ccccc3)c2C#N)cc1; 117
COc1ccc(/C=C/c2nc3ccccc3n3c(-c4ccc(Cl)cc4)nnc23)cc1; 95
CC12CC[C@@H]3[C@]4(C)COC(c5cn[nH]c5-c5cccc(Br)c5)O[C@@H]4CC[C@@]3(C)[C@@H]1CC(C1=CCOC1=O)O2 (some centres undefined); 37.8
CN(C)c1ccnc(CNCCSC2(c3ccccc3)c3ccccc3C=Cc3ccccc32)c1; 16.7
CCOC(=O)COc1c(OC)c(OC)cc2oc(-c3cccc(C(=O)Nc4ccc(Cl)cc4)c3)cc(=O)c12; 76.2

* * *

Test system: A498 renal
Assay: NCI-60 one-dose screen, 48 h (100 = growth as untreated, 0 = no growth, -100 = all killed)
Conditions: 10 µM unless noted
Compounds without any hit were thinned out: in the full panel of roughly 83,000, 20% have a hit. Activity calls are given as the source filed them. Rule for the calls: active = growth percent below 10; inactive = the rest.
The following molecules are listed with their measured growth values.
reported-property: growth

Cn1cc(-c2cc3nc(-c4cn(C)c5ncccc45)cc(N)n3n2)c2cc(Cl)ccc21; -75.9% (active)
COc1cc2oc(-c3cccc(C(=O)Nc4ccc(Cl)cc4)c3)cc(=O)c2c(OCC(=O)N[C@@H](Cc2ccccc2)C(=O)O)c1OC; 102% (inactive)
O=C1Nc2cc(Cl)ccc2/C1=C/c1cccc(OCc2ccccn2)c1; 123% (inactive)
CN(C)c1nc(NCCNS(=O)(=O)c2ccc(C(=O)/C=C/c3ccc(Cl)cc3)cc2)nc(Nc2ccc(F)cc2)n1; 9.56% (active)
Cc1cccc(-c2nc(Nc3ccc(C)c(S(N)(=O)=O)c3)c3ccccc3n2)c1; 52.8% (inactive)
N#Cc1c(-c2ccc(Br)cc2)nc2n[nH]c(-c3ccc(Br)cc3)c2c1-c1ccc(F)cc1; 163% (inactive)
COc1cc2oc(-c3cccc(C(=O)Nc4ccc(Cl)cc4)c3)cc(=O)c2c(OCCNC(=O)[C@H](CCC(=O)OC(C)(C)C)NC(=O)OC(C)(C)C)c1OC; 113% (inactive)
O=C(/C=C/c1cccc(OCc2ccc(F)cc2)c1)c1nc2ccccc2[nH]1; 112% (inactive)

* * *

System: A498 renal
Assay: NCI-60 one-dose screen, 48 h (100 = growth as untreated, 0 = no growth, -100 = all killed)
Conditions: 10 µM unless noted
Compounds without any hit were thinned out: in the full panel of roughly 83,000, 20% have a hit. Active and inactive are the calls of the source. The calls were made as follows: active = growth percent below 10; inactive = the rest.
reported-property: growth

CCC(C)(C)c1ccc(OCCCCN2CCN(c3ccncc3)CC2)cc1; 88.9% (inactive)
COc1ccc(-c2nc(SC(C)C)nc(NCCc3c[nH]c4ccccc34)c2C#N)cc1; 65.9% (inactive)
COc1c(F)ccc(C(=O)Nc2ccc3nc(NC(=O)C4CCCN(S(=O)(=O)c5ccc(Br)s5)C4)sc3c2)c1F (centres undefined); 104% (inactive)
Cc1ccc(S(=O)(=O)c2nc(S(=O)(=O)c3ccc(C)cc3)c(N3CCC(O)CC3)s2)cc1; 86.1% (inactive)
Cc1c(C(=O)NNC(=O)c2ccc(Cl)cc2)nnn1-c1ccc(Br)cc1; 139% (inactive)
COc1cc(C2CC(c3cc(OC)c(OC)c(OC)c3)=Nc3c(N)nc(N)nc3N2)ccc1Oc1nc(NCCO)nc(N2CCOCC2)n1 (centres undefined); 105% (inactive)
COc1cc(-c2ccc(/C=N/NC(=O)c3[nH]c4ccc(Br)cc4c3-c3ccccc3)o2)cc(OC)c1OC; 134% (inactive)
N#Cc1c(-c2cccc(Cl)c2Cl)cc(-c2c[nH]c3ccccc23)[nH]c1=O; 128% (inactive)
CCOc1ccc(C(=O)NC(=S)Nc2ccc(S(N)(=O)=O)cc2)cc1; 96.6% [100 µM] (inactive)

* * *

The following compounds are listed with their measured growth values.
Test system: COLO 205 colon
Experiment: NCI-60 one-dose screen, 48 h (100 = growth as untreated, 0 = no growth, -100 = all killed)
Conditions: 10 µM unless noted
Compounds without any hit were thinned out: in the full panel of roughly 83,000, 20% have a hit. The source made the active and inactive calls. The calls were made as follows: active = growth percent below 10; inactive = the rest.
reported-property: growth

N/N=C(\N)c1c(N)nc(=S)[nH]c1-c1ccc(Cl)cc1Cl; 120% (inactive)
COc1cc(/C=C2\C(=N)N=C(SCc3nc4ccccc4[nH]3)NC2=O)ccc1O; 110% (inactive)
CC1(C)CC[C@]2(C(=O)O)CC[C@]3(C)C(=CCC4[C@@]5(C)C[C@@H](O)[C@@H]6OC(c7ccco7)OC[C@@]6(C)C5CC[C@]43C)C2C1 (some centres undefined); -86.9% (active)
C#C[C@]1(O)CC[C@H]2[C@@H]3CC=C4c5sc(-c6ccc([N+](=O)[O-])cc6)nc5CC[C@]4(C)[C@H]3CC[C@@]21C; -70% (active)
CCC(C)(C)c1ccc(OCCCCCCN2CCN(c3ccncc3)CC2)cc1; -84.4% (active)
O=C(COc1ccc(NC(=O)Nc2ccc(Cl)c(Cl)c2)cc1)N=Nc1c(O)[nH]c2ccc([N+](=O)[O-])cc12; 14.3% (inactive)
C#CCOc1ccc(/C=N/Nc2nc(-c3cc4cc(OC)ccc4oc3=O)cs2)cc1OC; 63.6% (inactive)
CN(C)c1ccnc(CNCCSC2(c3ccccc3)c3ccccc3C=Cc3ccccc32)c1; -84.7% (active)
CCN(CC)CCOc1ccc(Nc2ncc3cc(-c4ccc(O)c(C#N)c4)c(=O)n(C)c3n2)cc1; 36.2% (inactive)
C=CC(=O)Nc1ccc(C)c(Oc2ccc(Cl)cc2)c1; 55.7% (inactive)
CSc1ccc(NC(=O)c2ccc3nnn(/C(C#N)=C/c4ccccn4)c3c2)cc1; -88.4% (active)
CC(C)Sc1nc(NCCc2c[nH]c3ccccc23)c(C#N)c(-c2ccc(F)cc2)n1; 28.9% (inactive)
O=c1onc(-c2cc3ccccc3nc2Cl)n1-c1cccc2ccccc12; 56.4% (inactive)
COc1ccc(-c2ccnc(SCc3cc4cc(Cl)ccc4[nH]c3=O)n2)cc1; 105% (inactive)
O=C(CN1C(=O)/C(=C/c2ccccc2F)SC1=S)N1CCOCC1; 98.5% (inactive)
COc1ccc(NC(=O)[C@H](CO)NC(=O)OC(C)(C)C)cc1C(=O)Nc1cccc(C2CC(=O)c3c(cc(OC)c(OC)c3OC)O2)c1 (some centres undefined); 77.2% (inactive)
COc1ccc2[nH]cc(-c3nnc(N)nc3-c3cn(C)c4ncc(Br)cc34)c2c1; 102% (inactive)
CCN(CC)c1ccc(/C=N/Nc2nc(-c3ccc(C)cc3)cs2)c(O)c1; 110% (inactive)
COc1ccc(C2=NN(c3ccccc3)C(c3ccc(OC)c(OCc4ccccc4)c3)C2)cc1OC (centres undefined); 115% (inactive)

* * *

Test system: TK-10 renal
Test: NCI-60 one-dose screen, 48 h (100 = growth as untreated, 0 = no growth, -100 = all killed)
Conditions: 10 µM unless noted
Method: Growth inhibition of the TK-10 human tumor cell line is measured as a screen for anti-cancer activity. Cells are grown in 96 well plates and exposed to the test compound for 48 hours. Compounds are tested at a single concentration, which is 10^-5 M for most compounds. The reported endpoint is percent growth (GI% or GIPRCNT), where numbers from 0 - 100% represent growth inhibition, and numbers from -100% - 0 represent cell death. For example, a value of 40 represents 60% growth inhibition. […]
Compounds without any hit were thinned out: in the full panel of roughly 83,000, 20% have a hit.
Sorting guide: entries reporting growth beneath 80% go in the MET pile, the rest go in the NOT MET pile.

Cn1cc(-c2nc(N)nnc2-c2c[nH]c3ccc(Br)cc23)c2cc(Br)cnc21; MET
CN1CCN(c2ccc(C(=O)/C=C/c3ccc(Br)cc3)cc2)CC1; MET
N#Cc1c(-c2ccccc2Cl)cc(-c2c[nH]c3ccccc23)[nH]c1=O; NOT MET
COc1ccc2[nH]c(=O)c(CSc3nccc(-c4ccc(OC)c(OC)c4)n3)cc2c1; MET
O=C(COc1ccc(NC(=O)Nc2ccc(Cl)c(Cl)c2)cc1)N=Nc1c(O)[nH]c2ccccc12; MET
C#CCOc1cc(N(CC)CC)ccc1C(C(=O)NC(C)(C)C)N(C(=O)C1CCc2cc(F)ccc2O1)c1ccc(F)c(Cl)c1 (centres undefined); NOT MET
N#Cc1c(-c2cccc3ccccc23)cc(-c2cccc(OCC(=O)O)c2)[nH]c1=O; NOT MET
O=C(CN1C(=O)/C(=C/c2ccccc2Cl)SC1=S)N1CCOCC1; NOT MET
CCCCNC(=S)Nc1ccc(OCc2nc3ccccc3[nH]2)cc1; NOT MET
COc1ccc(-c2ccnc(SCc3cc4ccccc4[nH]c3=O)n2)cc1; NOT MET
COc1cc2oc(-c3cccc(C(=O)Nc4ccc(Cl)cc4)c3)cc(=O)c2c(OCC(=O)N[C@@H](Cc2ccccc2)C(=O)O)c1OC; NOT MET
COc1cc2oc(-c3cccc(NC(=O)[C@H](CC(N)=O)NC(=O)OC(C)(C)C)c3)cc(=O)c2c(OC)c1OC; NOT MET
CN(C)c1ccnc(CNCCSC2(c3ccccc3)c3ccccc3C=Cc3ccccc32)c1; MET
COCOc1cc2oc(C(=O)N[C@@H](Cc3ccccc3)C(O)C(=O)NCc3ccccc3)c(C)c(=O)c2cc1OCOC (some centres undefined); MET
NS(=O)(=O)c1ccc(-n2cc(-c3cccc(NC(=O)c4cc(N5CCOCC5)cc(C(F)(F)F)c4)c3)nn2)cc1; NOT MET
O=C(CN1C(=O)/C(=C/c2ccccc2F)SC1=S)N1CCOCC1; NOT MET
COc1cc(OC)c2c3nc4cc(C)c(C)cc4nc3n(CCN(C)C)c2c1; NOT MET
